Listing of IC50 toward Caspase-1 (Homo sapiens, UniProt P29466), each taken from a published source.
Give bare numbers, in µM.

[
  {
    "compound": "O=C(O)CCC(=O)c1ccc(-c2ccccc2)cc1",
    "IC50 / µM": 4.4
  }
]

Please go through the list and note IC50 for each compound.
1. COc1ccc(OC)c(C(O)C(=O)N[C@H](C(=O)N[C@@H](CC(=O)O)C(=O)CSCc2ccccc2)C(C)C)c1 (stereo not given in full)
2. CCN(CC)C(=S)SSC(=S)N(CC)CC

[4.49, 1.8]

---

Biological target: Caspase-1 (Homo sapiens)
Sequence (P29466 whole entry): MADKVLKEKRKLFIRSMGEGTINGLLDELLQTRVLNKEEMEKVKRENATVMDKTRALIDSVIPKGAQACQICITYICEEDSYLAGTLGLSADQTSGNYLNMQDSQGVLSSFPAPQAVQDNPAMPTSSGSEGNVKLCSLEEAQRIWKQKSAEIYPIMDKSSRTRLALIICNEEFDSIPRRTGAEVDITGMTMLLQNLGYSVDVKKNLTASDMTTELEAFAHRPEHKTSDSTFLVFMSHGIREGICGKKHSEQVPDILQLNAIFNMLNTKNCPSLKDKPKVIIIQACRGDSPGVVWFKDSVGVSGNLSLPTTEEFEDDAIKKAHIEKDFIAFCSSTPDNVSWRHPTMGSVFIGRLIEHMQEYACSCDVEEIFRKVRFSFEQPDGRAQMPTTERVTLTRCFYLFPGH
System: Caspase-1 (Homo sapiens) | Read-out: IC50 | Origin: multiple publications
One number for each entry, in µM.

[
  {
    "compound": "COc1ccc(Br)cc1C(O)C(=O)N[C@H](C(=O)N[C@@H](CC(=O)O)C(=O)CSCc1ccccc1)C(C)C (some centres undefined)",
    "reported result": 1.54
  },
  {
    "compound": "COc1ccc(C(C)=O)cc1C(O)C(=O)N[C@H](C(=O)N[C@@H](CC(=O)O)C(=O)CSCc1ccccc1)C(C)C (some centres undefined)",
    "reported result": 4.85
  }
]

# map each compound to its IC50
1. C=CC[C@H](C(=O)N[C@H](C(=O)N[C@@H](CC(=O)O)C(=O)CSCc1ccccc1)C(C)C)c1cc(Br)ccc1OC
2. N#C/C(=C\c1ccc(O)c(O)c1)C(=O)OC/C=C/c1ccccc1
3. COc1ccc(-c2nc(C)no2)cc1C(O)C(=O)N[C@H](C(=O)N[C@@H](CC(=O)O)C(=O)CSCc1ccccc1)C(C)C (some centres undefined)
4. O=C(O)Cc1ccc(-c2ccccc2)cc1
5. CCCCCCCCOC(=O)/C=C/c1ccc(O)c(O)c1

1: 6.51; 2: 2.23; 3: 2.46; 4: 35; 5: 0.84
